The compounds listed here are annotated with their Selectivity.
- Species on record: Rattus norvegicus
- assay_summary: Ratio of binding affinity for D1-like receptor to that of dopamine D3 receptor
experimental_readout: Selectivity

{"columns": ["smiles_code", "value_observed"],
 "data": [
  ["CCCN1CCC2=C(CCc3ccccc32)C1", 18],
  ["c1ccc(CCN2CCC3=C(CCc4ccccc43)C2)cc1", 10],
  ["O=C(NCCCCN1CCC2=C(CCc3ccccc32)C1)c1ccc2ccccc2c1", 163],
  ["CCCCCN1CCC2=C(CCc3ccccc32)C1", 28],
  ["CCCCN1CCC2=C(CCc3ccccc32)C1", 62],
  ["c1ccc(CCCCN2CCC3=C(CCc4ccccc43)C2)cc1", 9]
]}

The reported numbers originate from ChEMBL document CHEMBL1137107.
